measuredOn: Integrin alpha-IIb/beta-3 (Homo sapiens)
assayText: Displacement of FITC-labeled fibrinogen from alphaIIbbeta3 in human platelets
Recorded IC50 by entry

{"molecule": "CC(CC(=O)O)N1Cc2ccc(NC(=O)c3ccc4c(c3)CNCC4)cc2C1=O (racemic)", "IC50": "6.5 nM"}
{"molecule": "O=C(O)CCN1Cc2ccc(NC(=O)c3ccc(C4CCNCC4)cc3)cc2C1=O", "IC50": "6.8 nM"}
{"molecule": "O=C(O)CCN1Cc2ccc(NC(=O)c3ccc4c(c3)CNCC4)cc2C1=O", "IC50": "6.5 nM"}
